Record form. Attribute: AC50 cell viability. Fill in for each entry.
# Tested on: HCT116;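 further: HCT116 colorectal carcinoma cells screened at five concentrations per compound, luminescent viability scaled between DMSO wells and empty wells on each plate, curves fitted per compound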
# procedureDetails: AC50 cell viability (CellTiter-Glo); higher = less potent
# cond: 48 h
Where a name gives a salt, the structure may show the parent alone.

Previously resolved entries follow.
| compound | AC50 cell viability |
| --- | --- |
| CCCCCN(CCC12CC3CC(CC(C3)C1)C2)C(=O)NCCCc1ccncc1 | 16.6 µM |
| CC(C)C[C@H](NC(=O)[C@H](Cc1ccccc1)NC(=O)c1cnccn1)B(O)O | 0.0132 µM |
| CN(C)CCOc1ccc(/C(=C(/CCCl)c2ccccc2)c2ccccc2)cc1 [Toremifene citrate] | 20.9 µM |

Answer for every listed entry: what is its AC50 cell viability? The entries follow.
1. O=C1\C=C(OC2=C1SC=C2C3=CC=C4OCCOC4=C3)\N5CCOCC5
2. Cc1c(-c2ccc(-c3ccccc3F)cc2)nc2ccc(F)cc2c1C(=O)O
3. C[C@H](NC(=O)C1=C2N=CC=C[N]2N=C1N)\C3=C\C4=CC=CC(=C4C(=O)N3C5=CC=CC=C5)C#CC6=C[N](C)N=C6
4. CC(C)C(=O)OCC(=O)[C@@]12O[C@@H](O[C@@H]1C[C@H]3[C@@H]4CC\C5=C\C(=O)\C=C/[C@]5(C)[C@H]4[C@@H](O)C[C@]23C)C6CCCCC6 [Ciclesonide]
5. OC1=C(Cl)C=C(N\C2=C(\C(=O)NC2=O)C3=C(C=CC=C3)[N+]([O-])=O)C=C1
6. CC1=C(C)C2=C(S1)[N]3C(=NN=C3[C@H](CC(=O)OC(C)(C)C)/N=C2/C4=CC=C(Cl)C=C4)C

output:
["3.72 µM", "0.209 µM", "8.11 µM", "20.9 µM", "20.9 µM", "0.525 µM"]
